- Tested on: blood coagulation
- ASSAY_DETAILS: PT and aPTT assay in cynomolgus monkeys (Example 46)
- Type: in vivo
- CONDITION_SET: Day 24; platelet poor plasma; relative to PBS group
Strand notation (5' to 3'): a small letter for the sugar, then the base; units joined by * are phosphorothioate-linked, units joined directly phosphodiester-linked; [ ] holds rarer units or linkages, { } end groups; capitals alone tell only the bases. e = 2'-O-(2-methoxyethyl) (MOE); [5mC] = 5-methylcytosine; d = 2'-deoxy (DNA)
OBSERVED_PROPERTY: aPTT ratio relative to PBS group

# SUBSTANCE, OBSERVED_PROPERTY, ENDPOINT_VALUE
measured = [
    ("ISIS 449711: 3-8-3, 4-8-4, 2-10-2, 3-10-3 or 4-10-4 MOE microwalk gapmer (Table 46) (antisense eA*e[5mC]*dA*dG*dT*dT*dT*d[5mC]*dT*dG*dG*d[5mC]*eA*eG)", "aPTT ratio relative to PBS group", 0.92),
    ("ISIS 416858: MOE gapmer, nucleobases 1275 to 1318 of SEQ ID NO: 1 (Table 8) (antisense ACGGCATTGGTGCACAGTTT; MOE gapmer, wing and gap sizes not given here)", "aPTT ratio relative to PBS group", 1.21),
    ("ISIS 449709: 3-8-3, 4-8-4, 2-10-2, 3-10-3 or 4-10-4 MOE microwalk gapmer (Table 46) (antisense eG*e[5mC]*eA*e[5mC]*dA*dG*dT*dT*dT*d[5mC]*dT*dG*dG*d[5mC]*eA*eG*eG*e[5mC])", "aPTT ratio relative to PBS group", 1.05),
    ("ISIS 449708: 3-8-3, 4-8-4, 2-10-2, 3-10-3 or 4-10-4 MOE microwalk gapmer (Table 46) (antisense eA*e[5mC]*eA*dG*dT*dT*dT*d[5mC]*dT*dG*dG*e[5mC]*eA*eG)", "aPTT ratio relative to PBS group", 1.01),
]
